- TARGET DESC: κ opioid receptor (KOR) (Homo sapiens, UniProt P41145)
- EXPERIMENT: Radioligand competition binding, KOR ([3H]-U69593), HEK293 cell homogenates
Entries annotated with measured Ki
State the answer as a number, implicitly in nM.

STRUCTURE SMILES	TARGET DESC	RECORDED VALUE
C#Cc1ccc2c(c1)C(c1ccccc1F)=N[C@@H](C)c1c(C(=O)OCC(F)(F)F)ncn1-2	κ opioid receptor (KOR) (Homo sapiens, UniProt P41145)	411
C[C@H]1N=C(c2ccccc2F)c2cc(Br)ccc2-n2cnc(C(=O)N(C)C)c21	κ opioid receptor (KOR) (Homo sapiens, UniProt P41145)	511
C#Cc1ccc2c(c1)C(c1ccccc1F)=N[C@@H](C)c1c(C(=O)NC(C)(C)C)ncn1-2	κ opioid receptor (KOR) (Homo sapiens, UniProt P41145)	39

Next up:
*Q* Notebook entry, κ opioid receptor (KOR) (Homo sapiens, UniProt P41145) assay: Ki of C#Cc1ccc2c(c1)C(c1ccccc1F)=N[C@@H](C)c1c(C(=O)OC(C)C)ncn1-2 = ?
*A* 65

###

- TARGET DESC: µ opioid receptor (MOR) (Homo sapiens)
- EXPERIMENT: Radioligand competition binding, MOR ([3H]-DAMGO), HEK293 cell homogenates
- MEASUREMENT PARAMETERS: read-out: MOR Ki; [3H]-DAMGO, HEK293 homogenates
MEASURE: Ki (nM)
Just the number in nM, nothing appended.

*Q* Entry under review: C#Cc1ccc2c(c1)C(c1ccccc1F)=N[C@@H](C)c1c(-c3nc(C(C)C)no3)ncn1-2 [GL-I-81] . Reported Ki?
*A* 2920

###

- Tested on: synaptic benzodiazepine-sensitive receptors (BZR), GABAAR
- EXPERIMENT: 3H-flunitrazepam binding, rat brain homogenate
- MEASUREMENT PARAMETERS: at 10,000 nM
MEASURE: BZR % (percent inhibition) (%)
Give just the numeric value; % need not be written.

MOLECULE	BZR % (percent inhibition) / %
C#Cc1ccc2c(c1)C(c1ccccc1F)=N[C@@H](C)c1c(C(N)=O)ncn1-2 [MP-III-018.B]	97

*Q* Value lookup for BZR % (percent inhibition); key = C#Cc1ccc2c(c1)C(c1ccccc1F)=NCc1c(-c3ocnc3C)ncn1-2 [KRM-III-65]
*A* 96

*Q* What value of BZR % (percent inhibition) has been reported for the following molecule? C#Cc1ccc2c(c1)C(c1ccccc1F)=N[C@@H](C)c1c(C(=O)O)ncn1-2 [SH-053-2′F-S-CH3-Acid]
*A* 93

*Q* Record request: BZR % (percent inhibition) value, item C#Cc1ccc2c(c1)C(c1ccccn1)=NCc1c(C(=O)O)ncn1-2 [SR-II-54]
*A* 80

###

- TARGET DESC: κ opioid receptor (KOR) (Homo sapiens, UniProt P41145)
- EXPERIMENT: Radioligand competition binding, KOR ([3H]-U69593), HEK293 cell homogenates
MEASURE: Ki (nM)
Return type: number; implicit unit nM.

*Q* Record C#Cc1ccc2c(c1)C(c1ccccc1F)=N[C@@H](C)c1c(C(=O)OC(C)(C)C)ncn1-2 : what is its Ki with κ opioid receptor (KOR) (Homo sapiens, UniProt P41145)?
*A* 27

*Q* Hi! What's the reported Ki for COC(=O)c1ncn2c1[C@@H](C)N=C(c1ccccc1F)c1cc(Br)ccc1-2 on κ opioid receptor (KOR) (Homo sapiens, UniProt P41145)?
*A* 237

*Q* Reported Ki for κ opioid receptor (KOR) (Homo sapiens, UniProt P41145), given C#Cc1ccc2c(c1)C(c1ccccc1F)=N[C@H](C)c1c(C(=O)N3CCCC3)ncn1-2 ?
*A* 371

*Q* Short answer please: Ki, κ opioid receptor (KOR) (Homo sapiens, UniProt P41145), entry C#Cc1ccc2c(c1)C(c1ccccc1F)=NCc1c(-c3ocnc3C)ncn1-2
*A* 879

*Q* Give the reported Ki for C#Cc1ccc2c(c1)C(c1ccccc1F)=N[C@@H](C)c1c(C(=O)SCC)ncn1-2 (system: κ opioid receptor (KOR) (Homo sapiens, UniProt P41145)).
*A* 125

*Q* Checklist item: Ki tested on κ opioid receptor (KOR) (Homo sapiens, UniProt P41145), entry C#Cc1ccc2c(c1)C(c1ccccc1F)=N[C@@H](C)c1c(C(=O)NCC)ncn1-2 , value?
*A* 102

*Q* State its Ki on κ opioid receptor (KOR) (Homo sapiens, UniProt P41145): C#Cc1ccc2c(c1)C(c1ccccc1F)=N[C@H](C)c1c(C(=O)NC(C)C)ncn1-2
*A* 233

*Q* Hello, I am looking for reported Ki with κ opioid receptor (KOR) (Homo sapiens, UniProt P41145) for C#Cc1ccc2c(c1)C(c1ccccc1F)=NCc1c(-c3cnco3)ncn1-2 [KRM-II-18B] . Could you help?
*A* 361

###

- System: synaptic benzodiazepine-sensitive receptors (BZR), GABAAR
- EXPERIMENT: 3H-flunitrazepam binding, rat brain homogenate
- MEASUREMENT PARAMETERS: at 10,000 nM
MEASURE: BZR % (percent inhibition) (%)
Give the value in % but do not write % after it.

STRUCTURE SMILES	UNIT INFO	BZR % (percent inhibition)
C#Cc1ccc2c(c1)C(c1ccccc1F)=N[C@@H](C)c1c(C(=O)OC(C)(C)C)ncn1-2	%	96
CCOC(=O)c1ncn2c1[C@H](C)N=C(c1ccccc1F)c1cc(C3CC3)ccc1-2	%	76

*Q* synaptic benzodiazepine-sensitive receptors (BZR), GABAAR / BZR % (percent inhibition) / C#Cc1ccc2c(c1)C(c1ccccc1F)=N[C@@H](C)c1c(C(=O)OCC)ncn1-2 : value?
*A* 92

*Q* Kindly state the measured BZR % (percent inhibition) obtained for C[C@@H]1N=C(c2ccccc2F)c2cc(Br)ccc2-n2cnc(-c3cnco3)c21 with synaptic benzodiazepine-sensitive receptors (BZR), GABAAR.
*A* 100

*Q* Request body: readout BZR % (percent inhibition), system synaptic benzodiazepine-sensitive receptors (BZR), GABAAR, query C#Cc1ccc2c(c1)C(c1ccccc1F)=N[C@@H](C)c1c(-c3cnco3)ncn1-2 . Return the value.
*A* 101

*Q* Write down the reported BZR % (percent inhibition) of C#Cc1ccc2c(c1)C(c1ccccn1)=NCc1c(-c3nc(C)no3)ncn1-2 , test system: synaptic benzodiazepine-sensitive receptors (BZR), GABAAR.
*A* 82

*Q* What value of BZR % (percent inhibition) on synaptic benzodiazepine-sensitive receptors (BZR), GABAAR does C#Cc1ccc2c(c1)C(c1ccccc1F)=N[C@H](C)c1c(C(=O)OC)ncn1-2 have?
*A* 78

*Q* // lookup BZR % (percent inhibition) | system=synaptic benzodiazepine-sensitive receptors (BZR), GABAAR | key= C#Cc1ccc2c(c1)C(c1ccccc1F)=N[C@H](C)c1c(-c3nc(C)no3)ncn1-2
*A* 63

###

- TARGET DESC: synaptic benzodiazepine-sensitive receptors (BZR), GABAAR
- EXPERIMENT: 3H-flunitrazepam binding, rat brain homogenate
- MEASUREMENT PARAMETERS: read-out: BZR (Ki)
MEASURE: Ki

The examples below pair each entry with its known result.
COMPOUND	TARGET DESC	RECORDED VALUE
C#Cc1ccc2c(c1)C(c1ccccc1F)=N[C@@H](C)c1c(C(=O)NCC)ncn1-2 [GL-I-43]	synaptic benzodiazepine-sensitive receptors (BZR), GABAAR	44 nM
C#Cc1ccc2c(c1)C(c1ccccc1F)=N[C@H](C)c1c(C(N)=O)ncn1-2 [MP-III-019.B]	synaptic benzodiazepine-sensitive receptors (BZR), GABAAR	54 nM
C#Cc1ccc2c(c1)C(c1ccccc1F)=N[C@@H](C)c1c(C(N)=O)ncn1-2 [MP-III-018.B]	synaptic benzodiazepine-sensitive receptors (BZR), GABAAR	17 nM

*Q* Consider the compound C[C@H]1N=C(c2ccccc2F)c2cc(Br)ccc2-n2cnc(C(=O)N(C)C)c21 [GL-III-69] and give its measured Ki.
*A* 446 nM

###

- TARGET DESC: δ opioid receptor (DOR) (Homo sapiens, UniProt P41143)
- EXPERIMENT: Radioligand competition binding, DOR ([3H]-DADLE), HEK293 cell homogenates
- MEASUREMENT PARAMETERS: at 10,000 nM
MEASURE: DOR % (percent inhibition) (%)
The reply should be a number in %, with the unit left off.

Example entries begin here.
COMPOUND	DOR % (percent inhibition) [%]
Cc1noc(-c2ncn3c2[C@@H](C)N=C(c2ccccc2F)c2cc(Br)ccc2-3)n1	18
C#Cc1ccc2c(c1)C(c1ccccc1F)=N[C@H](C)c1c(-c3cnco3)ncn1-2	4
C#Cc1ccc2c(c1)C(c1ccccn1)=N[C@H](C)c1c(-c3nc(CC)no3)ncn1-2	0

*Q* Look up DOR % (percent inhibition): C#Cc1ccc2c(c1)C(c1ccccc1F)=N[C@@H](C)c1c(-c3cnco3)ncn1-2
*A* 9

*Q* Name the recorded DOR % (percent inhibition) for C#Cc1ccc2c(c1)C(c1ccccc1F)=N[C@@H](C)c1c(-c3nc(CC)no3)ncn1-2 .
*A* 2

*Q* Consider the compound Cc1noc(-c2ncn3c2[C@@H](C)N=C(c2ccccc2F)c2cc(C4CC4)ccc2-3)n1 and give its measured DOR % (percent inhibition).
*A* 31

*Q* Entry CCOC(=O)c1ncn2c1[C@H](C)N=C(c1ccccc1F)c1cc(Br)ccc1-2 [SH-I-048B] : reported DOR % (percent inhibition) = ?
*A* 0

*Q* Please report the recorded DOR % (percent inhibition) for CCc1noc(-c2ncn3c2[C@@H](C)N=C(c2ccccc2F)c2cc(C4CC4)ccc2-3)n1 .
*A* 67
